tested on: UO-31 renal; assay: NCI tumour cell line growth inhibition, 48 h
endpointLabel: TGI (µM)
Provide the reading as a plain figure in µM.

CCCCCCCCCCCCCCCCCC(=O)[O][Sn]([CH2]CCC)([CH2]CCC)[CH2]CCC ... 0.34
C[C@H]1O[C@@H](O[C@H]2[C@@H](O)C[C@H](O[C@H]3[C@@H](O)C[C@H](O[C@H]4CC[C@]5(C)C6C[C@@H](O)[C@]7(C)[C@@H](C8=CC(=O)OC8)CC[C@]7(O)C6CC[C@@H]5C4)O[C@@H]3C)O[C@@H]2C)C[C@H](O)[C@@H]1O (some centres undefined) ... 0.166
C[C@]1(O)CC(=O)c2c(c(-c3ccc4cc5c(c(O)c4c3O)C(=O)C[C@@](C)(O)C5)c3cccc(O)c3c2O)C1 ... 14.8
C/C=C/C=C/C1=NN(c2cccc(S(=O)(=O)O)c2)C2(C1)C(Cl)C(=O)N2c1nc2ccccc2s1 (centres undefined) ... 4.15
CCCCCCCCC(=O)CCCCCCCCC(=O)O ... 84.7

Param item = O=C(CC(=O)C(=O)CC(=O)OCc1ccccc1)OCc1ccccc1 ; retrieve measured TGI.
75.7

====

test system: PC-3 prostate; experiment: NCI tumour cell line growth inhibition, 48 h
endpointLabel: TGI

// TGI lookup, key: O=[N+]([O-])c1nccn1CCCN=c1c2ccccc2n(O)c2ccccc12
> 100 µM

Next record, please: Nc1ccc(S(=O)(=O)Nc2nc3ccccc3nc2Nc2ccc(S(N)(=O)=O)cc2)cc1
> 100 µM

Cool, now Cn1ccnc1SC(F)(F)c1nc2ccccc2o1
> 100 µM

Now the same for C[C@H]1O[C@@H](O[C@H]2[C@@H](O)C[C@H](O[C@H]3[C@@H](O)C[C@H](O[C@H]4CC[C@]5(C)C6C[C@@H](O)[C@]7(C)[C@@H](C8=CC(=O)OC8)CC[C@]7(O)C6CC[C@@H]5C4)O[C@@H]3C)O[C@@H]2C)C[C@H](O)[C@@H]1O (stereo partly specified)
0.783 µM

Param item: O=C(O)c1cnccc1-c1cc(=O)[nH]n1-c1ccccc1
> 100 µM

Next up: O=C(N/N=C\c1ccc([N+](=O)[O-])cc1)Nc1ccccc1
> 100 µM

====

GI50 listing for selected compounds.
test system: RPMI-8226 leukemia; test: NCI tumour cell line growth inhibition, 48 h

Reference set (3 entries):
O=C(/C=C\c1cccc([N+](=O)[O-])c1)c1ccccc1 ... 1.07 µM
Nc1cccc(-c2nc3sccn3c2-c2ccnc(NCCCNS(=O)(=O)c3ccc(C(F)(F)F)cc3)n2)c1 ... 2.45 µM
NC(=O)c1ncn(C2OC(CO)C(O)C2O)n1 (centres undefined) ... 80.5 µM

# ---- query compound ----
Notebook: pull reported GI50 for RPMI-8226 leukemia, entry [Ce+3].[Cl-].[O-]/N=C(\c1ccccc1)c1ccccn1.[O-]/N=C(\c1ccccc1)c1ccccn1.[O-]/N=C(\c1ccccc1)c1ccccn1
59.7 µM

====

system: SK-MEL-2 melanoma; assay: NCI tumour cell line growth inhibition, 48 h
endpointLabel: GI50

NC(=O)Cc1ccccc1Oc1nccc(-c2c(-c3ccc(F)cc3)ncn2C2CCNCC2)n1 ... > 25 µM
C=C1CCCC(C)(C)[C@@H]1CC/C(C)=C/Cn1c2cccc(=O)c-2nc2ccccc21 ... 6.62 µM
O=C(O[C@H]1CN[C@H](C#Cc2cc3ncnc(Nc4ccc(Cc5ccccc5)cc4)c3s2)C1)N1CCOCC1 ... 5.41 µM

Which GI50 reading was recorded for the compound N#Cc1cc(-c2ccccc2)[nH]c1-c1nccc2ccccc12 ?
11.9 µM

Next: Cc1nc(NC(=O)COc2cccc(/C=C3\COc4ccccc4C3=O)c2)sc1C
1.62 µM

For CCc1ccc(/C(C#N)=C/C=C/c2ccccc2)cc1 then?
4.92 µM

Another: COc1ccc(Nc2nc(NCc3ccccc3)c3ccccc3n2)cc1
8.72 µM

Then what about the compound CCCCN(CCCC)c1cc(C(=O)CCCCCN)c2ccccc2n1 ?
2.56 µM

Record: COC(=O)C1=C2C3=C(C(=O)c4ccccc4C3=O)N(Cc3ccccc3)C2(OC(C)=O)C=CC1=O (stereo not given)
42.5 µM

Item: C[C@H](Nc1ccc(C#N)n(C)c1=O)c1cc2cc(Cl)ccc2[nH]c1=O
26.7 µM

Another compound to look at: CCOc1ccc(/C=N/Nc2cc(C)nc3ccc(Cl)cc23)cc1
1.9 µM

Same again, this time with COC(=O)C1=C(C(=O)Nc2cccnc2)C2OC1(C(Cc1ccccc1)Oc1ccccc1)C1OC21 (stereo not given)
12.9 µM
